Measured phenotypic distance, listed per entry.
# Tested on: E57 (patient-derived glioblastoma stem cells of mesenchymal subtype)
# assayOverview: phenotypic distance (Euclidean, principal components) from DMSO controls (arbitrary units); higher = stronger morphological change
# reportedConditions: 1000 nM; exposure time: 72 h
Returns: the value as a bare number; no unit string appended.

Known results for compounds:
compound	phenotypic distance
CCC(C)n1ncn(-c2ccc(N3CCN(c4ccc(OCC5COC(Cn6cncn6)(c6ccc(Cl)cc6Cl)O5)cc4)CC3)cc2)c1=O (stereo not given)	2.51
CN[C@@H](C)C(=O)N[C@H](C(=O)N1CCC[C@H]1C(=O)N[C@H]1c2ccccc2C[C@H]1OCC#CC#CCO[C@@H]1Cc2ccccc2[C@@H]1NC(=O)[C@@H]1CCCN1C(=O)[C@@H](NC(=O)[C@H](C)NC)C1CCCCC1)C1CCCCC1	2.41
C[C@H]1O[C@@H](O[C@H]2[C@@H](O)C[C@H](O[C@H]3[C@@H](O)C[C@H](O[C@H]4CC[C@@]5(C)[C@H](CC[C@@H]6[C@@H]5C[C@@H](O)[C@]5(C)[C@@H](C7=CC(=O)OC7)CC[C@]65O)C4)O[C@@H]3C)O[C@@H]2C)C[C@H](O)[C@@H]1O	6.34

Q. Look at this compound and give its reported phenotypic distance. CC[C@@]1(O)C(=O)OCc2c1cc1n(c2=O)Cc2cc3cc(O)ccc3nc2-1 [Hydroxy Camptothecine]
A. 6.33

Q. Look at this compound and give its reported phenotypic distance. COc1ccc2c(c1)CC[C@@H]1[C@@H]2CC[C@]2(C)[C@@H](NCCCCCCN3C(=O)CCC3=O)CC[C@@H]12
A. 1.78

* * *

# System: E34 (patient-derived glioblastoma stem cells of proneural subtype);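 note: nuclei counted by high-content imaging of Hoechst-stained cells in laminin-coated 384-well plates, relative to 0.1% DMSO vehicle wells, with staurosporine as cell-death control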
# assayOverview: surviving fraction (nuclei count normalised to DMSO); higher = more cells surviving (less toxic)
# reportedConditions: 37 nM; exposure time: 72 h
Where a name gives a salt, the structure may show the parent alone.
Class true (1): surviving fraction at least 1. Class false (0): surviving fraction below 1.

Study these solved cases before continuing.
In [3]: df
Out[3]:
                                   compound  assignedclass
0  NCc1ccccc1CC(=O)N[C@@H]1C(=O)N2C(C(=O)O)=C(CSc3nnnn3CC(=O)O)CS[C@H]12 [Ceforanide]       true (1)
1  COC(=O)C1=C(C)NC(C)=C(C(=O)OCC(C)C)C1c1ccccc1[N+](=O)[O-] (stereo not drawn)       true (1)
2  Cc1[nH]nc(C(F)(F)F)c1Cc1sc2c(c1C(=O)N1C[C@](C)(O)CO1)c(=O)n(C)c(=O)n2C(C)C      false (0)
3  COc1cc(NS(C)(=O)=O)ccc1Nc1c2ccccc2nc2ccccc12      false (0)

Q. Answer whether surviving fraction of OC(c1cc(C(F)(F)F)nc2c(C(F)(F)F)cccc12)C1CCCCN1 (stereo not drawn) [Mefloquine hydrochloride] is greater than or equal to 1.
A. true (1)

Q. Answer whether surviving fraction of O=C1CCc2cc(OCCCCc3nnnn3C3CCCCC3)ccc2N1 is greater than or equal to 1.
A. false (0)

* * *

# System: E21 (patient-derived glioblastoma stem cells of mesenchymal subtype)
# assayOverview: phenotypic distance (Euclidean, principal components) from DMSO controls (arbitrary units); higher = stronger morphological change
# reportedConditions: 333.3 nM; exposure time: 72 h
measuredQuantity: phenotypic distance
Returns: the value as a bare number; no unit string appended.

Known results for molecules:
                                   molecule  testedon     measuredquantity  assayvalue
0  CCc1c2c(nc3ccc(OC(=O)N4CCC(N5CCCCC5)CC4)cc13)-c1cc3c(c(=O)n1C2)COC(=O)[C@]3(O)CC       E21  phenotypic distance        1.88
1  C[C@H]1Oc2cc(cnc2N)-c2c(nn(C)c2C#N)CN(C)C(=O)c2ccc(F)cc21       E21  phenotypic distance        1.37
2  Nc1ccn([C@@H]2O[C@H](CO)[C@@H](O)[C@@H]2O)c(=O)n1       E21  phenotypic distance        4.54
3            CCCSc1ccc2[nH]c(NC(=O)OC)nc2c1       E21  phenotypic distance         3.4
4  C[C@H](Cc1cc2c(c(C(N)=O)c1)N(CCCO)CC2)NCCOc1ccccc1OCC(F)(F)F       E21  phenotypic distance       0.998
5  OCCN1CCN(CCCN2c3ccccc3Sc3ccc(Cl)cc32)CC1       E21  phenotypic distance       0.995
6  CN(C(=O)CN(CCO)CC(=O)N(C)C(C)(C)Cc1ccccc1)C(C)(C)Cc1ccccc1       E21  phenotypic distance       0.702
7  COc1cc2c(c(OC)c1OC)-c1ccc(OC)c(=O)cc1[C@@H](NC(C)=O)CC2       E21  phenotypic distance         5.2
8  Cc1cc(/C=C/c2ccc3cc(N(C)C)ccc3[n+]2C)c(C)n1-c1ccccc1 [Pyrvinium pamoate]       E21  phenotypic distance        4.65
9       COC(=O)Nc1nc2cc(Sc3ccccc3)ccc2[nH]1       E21  phenotypic distance        2.19

Q. Look at this molecule and give its reported phenotypic distance. CC(=O)OC[C@H]1O[C@@H]([S-])[C@H](OC(C)=O)[C@@H](OC(C)=O)[C@@H]1OC(C)=O.CCP(CC)CC.[Au+]
A. 1.15

Q. Look at this molecule and give its reported phenotypic distance. CCCCCCNC(=O)n1cc(F)c(=O)[nH]c1=O
A. 0.649

Q. Look at this molecule and give its reported phenotypic distance. Cn1ncnc1[C@H]1c2n[nH]c(=O)c3cc(F)cc(c23)N[C@@H]1c1ccc(F)cc1
A. 3.08

Q. Look at this molecule and give its reported phenotypic distance. Nc1nc(=O)c2nc(CNc3ccc(C(=O)N[C@@H](CCC(=O)O)C(=O)O)cc3)cnc2[nH]1
A. 0.464

Q. Look at this molecule and give its reported phenotypic distance. CCn1cc(C(=O)O)c(=O)c2cc(F)c(N3CCNCC3)nc21
A. 0.603

Q. Look at this molecule and give its reported phenotypic distance. CC(C)C[C@@H](C(=O)N[C@H](C(=O)OC1CCCC1)c1ccccc1)[C@H](O)C(=O)NO
A. 1.62

Q. Look at this molecule and give its reported phenotypic distance. CN1C(=O)OC(C)(C)C1=O
A. 0.36
